- Tested on: KRas G12C mutant
- Experiment: Ras GTP binding domain inhibition assay (Cy3-GTP/Cy5-GTP competition)
- Design: species or system human
- Recorded Conditions: 20 μM; without SOS (Table 7A)
Measured Property: KRas G12C mutant: % inh.

{"Molecule": "COCCNC(=O)c1sc2nc(-c3nccn3C)nc(N[C@H]3C[C@@H](OC)C3)c2c1-c1ccccc1 [drawing 921]", "Value Reported": "D (76-100% inhibition)"}
{"Molecule": "CO[C@H]1C[C@@H](Nc2nc(-c3nccn3C)nc3sc(-c4cnn(C)c4)c(-c4ccccc4)c23)C1 [drawing 892]", "Value Reported": "D (76-100% inhibition)"}
